Tested on: PfAP2-I AP2 domain 3 (GST-tagged)
experiment.notes: gcPBM binding intensity (ln(normalized median fluorescence intensity)); higher = stronger DNA binding
Whole data set: some 25,000 sequences, median “ln(normalized median fluorescence intensity)” near 7.9, cut for the highest 2% near 11. What follows is part of a selection rich in the highest values, with near analogues and random picks from the rest.
property.label: gcPBM binding intensity (ln)

// worked examples, gcPBM binding intensity (ln) included
TGCAATTTAATATGAGTGCATATATTGAGAAAATAC ... 10
TATATATATATGTGCACACATAAAGATATTATTTTT [CACACA_site3733] ... 10.2
ACAAAAAAAATAAGCACACATATATATATATATATA [CACACA_site816] ... 9.38

GET /values?readout=gcPBM binding intensity (ln)&item= `ATATATTTTATATGTGTGCACTATATATATATATAT`
11.4

GET /values?readout=gcPBM binding intensity (ln)&item= AGAATTTTAGATTTAGCACACATTTTTTTTTTTTTT [CACACA_site4081]
8.34

----------
System: PfAP2-I AP2 domain 3 (GST-tagged)
experiment.notes: gcPBM binding intensity (ln(normalized median fluorescence intensity)); higher = stronger DNA binding
Whole data set: some 25,000 sequences, median “ln(normalized median fluorescence intensity)” near 7.9, cut for the highest 2% near 11. This excerpt belongs to a sample that is enriched for the highest values.
Overview of recorded gcPBM binding intensity (ln) for various sequences
Field format: numeric only.

AACTCATAGGAGTGTGCACACAAAAAATTAAAAAAA [CACACA_site8996] ... 9.52
ATATATCATAATAAAAGTACTTATATATTTTATATA [XGTACX_site560] ... 7.59
AAAAAAAATAAAAATATATATATATATATATAAATA [GTGCAC_negctrl_site676] ... 7.82
AAACAAAGGGAACATGTGCACTTACAAAAAAAAAGA ... 9.78
AAATTAAAGGCATAAAAGAAAATATTTAATAAAAAA [CACACA_negctrl_site1689] ... 7.71
ATGGCATAAATATATGCACACACAAAAAAAAAAAAA [CACACA_site7902] ... 8.98
TATATTAATAAAGGTACTACACGGAAATGGAAATAT [XGTACX_site7760] ... 8.58
CTTATATATACGTGCACACATATATATAAGATATAT [CACACA_site1752] ... 11

GET /values?readout=gcPBM binding intensity (ln)&item= AAAATAATAATAGGCACACATATATATATATATATA [CACACA_site2058]
9.36

GET /values?readout=gcPBM binding intensity (ln)&item= ATATAATATTTATATGCACACTTTTCTATATATAAG [CACACA_site6100]
9.77

GET /values?readout=gcPBM binding intensity (ln)&item= `TCTCCACCTCTCTTGGTGCGTTATACCCTCGAGGCT`
11.3

GET /values?readout=gcPBM binding intensity (ln)&item= TTTTCATATTATAGTGCACACAAAAATATATATATG [CACACA_site8929]
11.5

GET /values?readout=gcPBM binding intensity (ln)&item= `ACTTTAACCTGAACGGTGCATAAAATTTTGGCATTA`
10.9

GET /values?readout=gcPBM binding intensity (ln)&item= ACTAATAATTTGTCGGTGCATAAAATTATTTTTATT [GTGCAC_site9840]
10.8

GET /values?readout=gcPBM binding intensity (ln)&item= TATATATATATATATGTGCACTGGACATATTTTTAT [GTGCAC_site9721]
10.1

GET /values?readout=gcPBM binding intensity (ln)&item= TGCTTATATATACGTGCACACATATATATAAGATAT [CACACA_site8516]
10.9

----------
Test system: PfAP2-I AP2 domain 3 (GST-tagged)
experiment.notes: gcPBM binding intensity (ln(normalized median fluorescence intensity)); higher = stronger DNA binding
Over roughly 25,000 sequences, “ln(normalized median fluorescence intensity)” has its median near 7.9; the highest 2% begin near 11. Only a selection was taken, and the highest values are over-represented in it overall.
property.label: gcPBM binding intensity (ln)

// worked examples, gcPBM binding intensity (ln) included
ATAATAAAATAAATCACACATAATATAATGTAATAT [CACACA_site6144] ... 7.54
TATAATAATATTATAGTGCATATTATTTATATATAA [GTGCAC_site9820] ... 9.72
AATCTAATATAATGCACACATAAAAAAAAAATCAAA [CACACA_site2714] ... 10.7
ACCTTATTTAGTTATAGTACACAAAGTATTAAACAT [XGTACX_site8418] ... 8.46
TATATTATATATATGTGTACATATAAATGTAACAAA [XGTACX_site5025] ... 7.67

GET /values?readout=gcPBM binding intensity (ln)&item= TCTTTATATCATCTTTCTAAATATATATATATATAA [CACACA_negctrl_site77]
7.84

GET /values?readout=gcPBM binding intensity (ln)&item= AATCTAATATAATGCACACATAAAAAAAAATCAAAC [CACACA_site3633]
11.1

GET /values?readout=gcPBM binding intensity (ln)&item= TGCTATATAATATGAGCACACATAAGATTTGGTGTT [CACACA_site8148]
8.05

----------
System: PfAP2-I AP2 domain 3 (GST-tagged)
experiment.notes: gcPBM binding intensity (ln(normalized median fluorescence intensity)); higher = stronger DNA binding
Whole data set: some 25,000 sequences, median “ln(normalized median fluorescence intensity)” near 7.9, cut for the highest 2% near 11. The sample holds the highest values, similar sequences and a random draw of the others, so the mix is not that of the screen.
Tag: Yes if measured gcPBM binding intensity (ln) is not below 8, No if it is.

TATAGATACACTTTGTGTACATAAAAATTGTATTAA [XGTACX_site7137] ... No
AGGTGCAAAAATAAAACATGCAAAAATAAAAATGAA [TGCATGCA_site502] ... Yes
TTTCATATTTTGTCCTGTTTTTTTTTTTTTTTTCTT [CACACA_negctrl_site993] ... No
GGGAATATAAGTACACGATAATATGTGATAAGGTCT [CACACA_negctrl_site1502] ... Yes
AAAATTATAATAATATGTACTTAAAAAATTTATATA [XGTACX_site632] ... No

Please tell me: is the sequence TTTTGTAAAAAGAAAAATTAGAATATATCGTATATA [XGTACX_negctrl_site617] at or over 8 in terms of gcPBM binding intensity (ln)?
No

----------
System: PfAP2-I AP2 domain 3 (GST-tagged)
experiment.notes: gcPBM binding intensity (ln(normalized median fluorescence intensity)); higher = stronger DNA binding
Whole data set: some 25,000 sequences, median “ln(normalized median fluorescence intensity)” near 7.9, cut for the highest 2% near 11. Shown is part of a subset that was picked to be rich in the highest values.
Overview of recorded gcPBM binding intensity (ln) for various sequences
Field format: numeric only.

TATATATATATATATGTGCACATTTTATTAAAATGT ... 9.87
GTGCAAAATATTTTTACACACAAATTTTTACAACAG [CACACA_site3357] ... 9.99

Now turn to the next sequence.
GET /values?readout=gcPBM binding intensity (ln)&item= TATAAACCTTTTTGCACGCACACAAAAAAAAAATAA [CACACA_site168]
9.99

----------
System: PfAP2-I AP2 domain 3 (GST-tagged)
experiment.notes: gcPBM binding intensity (ln(normalized median fluorescence intensity)); higher = stronger DNA binding
In all, about 25,000 sequences were measured (“ln(normalized median fluorescence intensity)”: median about 7.9, highest 2% from about 11 on). The entries come from a sample that favours the highest values as a whole.
property.label: gcPBM binding intensity (ln)
Field format: numeric only.

TATATATATATTTTTTGTACATATTATATAATATAC [XGTACX_site5187] ... 9.03
ATATATTATAGAGGTGTGCACTACATACATTATAAT [GTGCAC_site9991] ... 10.9

GET /values?readout=gcPBM binding intensity (ln)&item= AAGTTTAAAATCTTTGCACACATATAAATAAATATA [CACACA_site2554]
8.94

----------
Test system: PfAP2-I AP2 domain 3 (GST-tagged)
experiment.notes: gcPBM binding intensity (ln(normalized median fluorescence intensity)); higher = stronger DNA binding
The full ranking holds about 25,000 sequences; the median of “ln(normalized median fluorescence intensity)” is about 7.9, and the highest 2% start at about 11. What follows is part of a selection rich in the highest values, with near analogues and random picks from the rest.
Tag: Satisfied if measured gcPBM binding intensity (ln) is not below 8, Not satisfied if it is.

GTAATATTAATATAATGTACAAAATGAAACATATAT [XGTACX_site6219] ... Not satisfied
ATTATCCATCAAAAGGTGCAAATTTTTAATTATAAA [GTGCAC_site9932] ... Satisfied
ATTAAGACACATTGCACACGTGCACCCATAGAAAAA [CACACA_site408] ... Satisfied
CATTTGCACCCGCACACACACATAAAAAGAAAAATA [CACACA_site4350] ... Satisfied
AAAAAAAAAAAAAAGGTGCAAATAAATTAACCTTAT ... Satisfied
TTATAAAAAAAAAAAAAAAAAAAAACCAATATAATA [CACACA_negctrl_site968] ... Not satisfied
CATATTATATTCTGCTTACACACATATATATATATA [CACACA_site3059] ... Satisfied

Attention now turns to another entry.
Please tell me: is the sequence TTTTTTTTTTTTTTGGTGCACATAGAAATTCTAAAA [GTGCAC_site9809] at or over 8 in terms of gcPBM binding intensity (ln)?
Satisfied
